Provenance of the data: paper PMC4912613

# System: ProRS (prolyl t-RNA synthetase L482H, parent Dd2)
# Assay Comment: Cross-resistance EC50 assay, ProRS
# Type: cell-based
# Test Parameters: Plasmodium falciparum; SYBR green 72 hour assay; synchronized parasites; 384-well format; strain ProRS (Dd2 parent)
pEC50: −log10 of the molar value.
Endpoint Name: pEC50

>>> data_value("Nc1ccc(-c2nc3cc(Cc4ccc5[nH]c(-c6ccc(N)cc6)nc5c4)ccc3[nH]2)cc1 [MMV665943]")
6.38
>>> data_value("Brc1ccc(Nc2nc3ccccc3nc2Nc2ccc(Br)cc2)cc1 [MMV007224]")
6.53
>>> data_value("Cl.c1ccc2c(NCCCCCCNc3c4c(nc5ccccc35)CCCC4)c3c(nc2c1)CCCC3 [MMV019555]")
6.64
>>> data_value("CCN(CC)CCn1c(=N)n(CC(O)c2ccc(Cl)c(Cl)c2)c2ccccc21.Cl (centres unmarked) [MMV000248]")
6.44
>>> data_value("Cc1ccc(S(=O)(=O)n2cc(-c3ccnc(N)c3)c3cc(Br)cnc32)cc1 [MMV024114]")
6.17
